The values you see were collected from ChEMBL document CHEMBL3507680.

Test: Human HepG2 cell viability assay in 384 well format
Type: toxicity, cell-based
Set-up: dose 125 nL, time 70.5 hour; concentration not given beside the values
Conditions: HepG2 cells, read-out: Inhibition
endpoint name: cytotoxicity at 70.5 h (%)
Only the number, expressed in %, is required.

Example cases with answers are listed next.
In [3]: df
Out[3]:
                                   compound  readout_value
0  Cc1ccc(C(=O)N2CCCC(NC(=O)C(C)C)C2)c(O)c1 (stereo unspecified)          -3.17
1     COc1cc(N2CCC3(CC2)CC(N2CCOCC2)C3)ncn1            -16
2  COc1ccc(-c2nnc(SC(C)C(=O)NC3CCCC3)[nH]2)c(OC)c1 (stereo unspecified)           42.2
3  CC(C)CC(CNC(=O)NCc1cc[nH]n1)N1CCOCC1 (stereo unspecified)           39.4
4  CC(=O)N1CCN2C[C@H](CO)[C@@H](c3ccccc3)[C@H]2C1          -6.55

Ask: Given the compound `COCc1nc2cc(NCc3nc(C)cs3)ccc2o1` , what is its reported cytotoxicity at 70.5 h?
Reply: -2.56

Ask: What cytotoxicity at 70.5 h value was documented for this compound, `CNCc1nc(-c2ccc3c(c2)OCO3)c[nH]1` ?
Reply: -13.6

Ask: // lookup cytotoxicity at 70.5 h for NC(=O)c1cnn2c1NCC(CNCCCc1ccccc1)C2 (stereo unspecified)
Reply: -6.83

Ask: What cytotoxicity at 70.5 h value was documented for this compound, `Cc1nc(C(=O)N2CCN(S(C)(=O)=O)CC2)c(-c2ccccc2Cl)s1` ?
Reply: 16

Ask: Return reported cytotoxicity at 70.5 h; argument: `COc1ccc(-c2nc(CN3CC(n4cc(C)cn4)C3)no2)cc1`
Reply: -4.24

Ask: Requested field: cytotoxicity at 70.5 h. Item: CC(C)c1noc(C(C)N2CCC(c3nc4ccccc4o3)CC2)n1 (stereo unspecified)
Reply: -18.9

* * *

Experiment: Human HepG2 cell viability assay in 384 well format
Type: toxicity, cell-based
Design: dose 125 nL, time 70.5 hour; concentration not given beside the values
Conditions: HepG2 cells, read-out: Inhibition
# Lookup of reported cytotoxicity at 70.5 h keyed by entry
Write the value in % as a bare number.

Ask: Entry Cn1cc(CN2CCCC(CCc3ccccc3C(F)(F)F)C2)cn1 (stereo unspecified) has what cytotoxicity at 70.5 h?
Reply: -1.24

* * *

List of cytotoxicity at 70.5 h values.
Assay: Human HepG2 cell viability assay in 384 well format
Assay type: toxicity, cell-based
Design: dose 125 nL, time 70.5 hour; concentration not given beside the values
Conditions: HepG2 cells, read-out: Inhibition
Dear colleague, please return just the value in %, with no unit written.

Recorded results for 2 molecules are shown here.
                                   molecule  readout_value
0  COc1ccccc1CN1C(=O)O[C@@H]2CN(c3ccccn3)C[C@@H]21           22.7
1  COc1ccccc1C1CNC(=O)c2nc(-c3cnn(C)c3)[nH]c2C1 (centres undefined)          -7.47

Ask: Look up cytotoxicity at 70.5 h for this molecule: `Nc1nccc(N2C[C@@H](CN3CCCCC3)[C@@H](CO)C2)n1`
Reply: -6.83

Ask: So what's the measured cytotoxicity at 70.5 h for this one? `CS(=O)(=O)N1CC(c2n[nH]c3ncccc23)C1`
Reply: -1.49

* * *

Test: Human HepG2 cell viability assay in 384 well format
Format: toxicity, cell-based
Parameters: dose 125 nL, time 70.5 hour; concentration not given beside the values
Settings: HepG2 cells, read-out: Inhibition
endpoint name: cytotoxicity at 70.5 h (%)
Give a bare numeral; the unit % is implied.

                                   compound  readout_value
0  CCN1CCC(CC(=O)NCC(O)c2cccc(OC)c2)CC1 (configuration not stated)          -6.22

Ask: Quick one: cytotoxicity at 70.5 h for O=C(NCC1CCCO1)c1c(-n2cnnn2)sc2c1CCC2 (configuration not stated) ?
Reply: -18.6

Ask: cytotoxicity at 70.5 h for Cc1ccc(C(=O)N2CCCC(c3cc(C(F)(F)F)[nH]n3)C2)o1 (configuration not stated) ?
Reply: -5.23

Ask: Can you look up the measured cytotoxicity at 70.5 h of `CN(CC(=O)N(C)C1CC1)C1CCN(c2ccc(Cl)cc2)CC1` for me?
Reply: 24.7

Ask: cytotoxicity at 70.5 h for `CC(=O)Nc1nc(C2CCN(C(=O)c3cncs3)CC2)cs1` ?
Reply: 11.2

Ask: Given CN(C)c1nc2c(c(N3CCC4(CCCNC4=O)C3)n1)CCCC2 (configuration not stated) , state its recorded cytotoxicity at 70.5 h.
Reply: 8.69

Ask: cytotoxicity at 70.5 h for `NC(=O)c1cc2c(nc1CCOc1ccc(F)cc1)CCC2` ?
Reply: -2.31

Ask: Need cytotoxicity at 70.5 h of `O=C1NCCN1C1CCN(Cc2nc(-c3ccsc3)no2)CC1` , thanks.
Reply: 32.4

Ask: Given CCNc1ncc(C(=O)N2CCOC(CCCC(C)C)C2)cn1 (configuration not stated) , state its recorded cytotoxicity at 70.5 h.
Reply: -7.7

* * *

Assay: Human HepG2 cell viability assay in 384 well format
Format: toxicity, cell-based
Parameters: dose 125 nL, time 70.5 hour; concentration not given beside the values
Conditions: HepG2 cells, read-out: Inhibition
Measured cytotoxicity at 70.5 h by item
Just the number in %, nothing appended.

>>> print(df.to_string())
                                   compound  readout_value
0  CC(C(=O)O)N1CC2(CCC1=O)CCN(C/C=C/c1ccccc1)CC2 (configuration not stated)          -7.03
1  CC(NC(=O)COc1ccccc1I)C1CC1 (configuration not stated)          -1.97
2  Cc1ccc2c(c1)C1(CCNCC1)CC2NC(C)C (configuration not stated)          -2.54

Ask: Sample `COCc1n[nH]c2c1CN(Cc1ccccn1)C2` — what was its cytotoxicity at 70.5 h?
Reply: -9.17

Ask: Entry `CSc1ccccc1CN1CCn2nc(CNC(C)=O)cc2C1` : reported cytotoxicity at 70.5 h = ?
Reply: -0.83

Ask: Given `C=C(C)COc1cccc(C(=O)N(CC)Cc2nccn2C)c1` , state its recorded cytotoxicity at 70.5 h.
Reply: 2.21

* * *

Assay: Human HepG2 cell viability assay in 384 well format
Format: toxicity, cell-based
Set-up: dose 125 nL, time 70.5 hour; concentration not given beside the values
Settings: HepG2 cells, read-out: Inhibition
endpoint name: cytotoxicity at 70.5 h (%)
Give the value, in units of %, as a plain number.

Solved cases below.
>>> df
                                   compound           endpoint_name  readout_value
0  Cn1ncc2c1NC(=O)CC2c1ccccc1Br (configuration not stated)  cytotoxicity at 70.5 h          -12.4
1    Cc1cnn(CC(=O)N2CCCN(c3ncccc3C#N)CC2)c1  cytotoxicity at 70.5 h          -1.08
2  Cc1cnc(C(=O)N2Cc3cc(Cl)ccc3OC3(CCOCC3)C2)cn1  cytotoxicity at 70.5 h           1.54
3  COc1cccc(NC(=O)Cn2cc(-c3ccccc3)ncc2=O)c1  cytotoxicity at 70.5 h          -8.81
4  CC1(C)CC1(C(=O)N1CC(c2cccnc2)C1)c1ccc(F)cc1 (configuration not stated)  cytotoxicity at 70.5 h           29.7

Ask: Which cytotoxicity at 70.5 h value is on record for CCc1nc(CN(C)CC(c2cccs2)N2CCOCC2)no1 (configuration not stated) ?
Reply: 18.8

Ask: Request the reported cytotoxicity at 70.5 h associated with CS(=O)(=O)NC1CCc2c(ccc(=O)n2CC2CC2)C1 (configuration not stated)
Reply: -15.1

Ask: Which value of cytotoxicity at 70.5 h has been reported for `CS(=O)(=O)CCS(=O)(=O)Cc1cc(Cl)c2c(c1)OCCCO2` in the records?
Reply: -5.05

Ask: Give its cytotoxicity at 70.5 h value. Item: `O=C(O)c1ccnc(SCC(=O)c2ccccc2)c1`
Reply: 14.5

Ask: Reported cytotoxicity at 70.5 h for `Cc1nnc(NCc2ccc(SC(F)F)cc2)o1` : what is it?
Reply: 14.2

Ask: If you can, please state the reported cytotoxicity at 70.5 h value of `Cc1ccccc1-c1cc(CC2(C(=O)O)CCOCC2)on1` .
Reply: -6.86

Ask: Find the recorded cytotoxicity at 70.5 h belonging to CCC(Nc1nc(CCN)nc2ccccc12)c1cc(C)ccn1 (configuration not stated) and report it.
Reply: -5.71
